- Measurement Description: Stability in solution (decay of SIRT1 fold-stimulation of aged stock)
- Format: physicochemical
- Conditions Used: ethanol stock solution; ethanol stock 2.5 mM, room temperature, glass vials, nitrogen; assayed at 50 μM; read-out: Stability in Solution t1/2 (converted)
- Text: The fold-stimulation (ratio to control) obtained with a compound diluted from an aged stock solution was compared to an identical dilution from a stock solution freshly prepared from the solid compound. “t1/2” is defined as the time required for the SIRT1 fold-stimulation of the compound from the aged solution to decay to one-half of that obtained from a freshly prepared solution. […] Stocks were aged by storage at room […] temperature, in glass vials, under a nitrogen atmosphere.
Metric Name: half-life (days)
Use days as the unit, but write only the number.

Reported half-life for CC(=O)Oc1ccc(/C=C/c2cc(O)cc(O)c2)cc1 [BML-221, 3,5-Dihydroxy-4′-acetoxy-trans-stilbene] : what is it?
21

----------
- Target System: recombinant human SIRT1 (Homo sapiens, UniProt Q96EB6)
- Sequence (Q96EB6 whole entry): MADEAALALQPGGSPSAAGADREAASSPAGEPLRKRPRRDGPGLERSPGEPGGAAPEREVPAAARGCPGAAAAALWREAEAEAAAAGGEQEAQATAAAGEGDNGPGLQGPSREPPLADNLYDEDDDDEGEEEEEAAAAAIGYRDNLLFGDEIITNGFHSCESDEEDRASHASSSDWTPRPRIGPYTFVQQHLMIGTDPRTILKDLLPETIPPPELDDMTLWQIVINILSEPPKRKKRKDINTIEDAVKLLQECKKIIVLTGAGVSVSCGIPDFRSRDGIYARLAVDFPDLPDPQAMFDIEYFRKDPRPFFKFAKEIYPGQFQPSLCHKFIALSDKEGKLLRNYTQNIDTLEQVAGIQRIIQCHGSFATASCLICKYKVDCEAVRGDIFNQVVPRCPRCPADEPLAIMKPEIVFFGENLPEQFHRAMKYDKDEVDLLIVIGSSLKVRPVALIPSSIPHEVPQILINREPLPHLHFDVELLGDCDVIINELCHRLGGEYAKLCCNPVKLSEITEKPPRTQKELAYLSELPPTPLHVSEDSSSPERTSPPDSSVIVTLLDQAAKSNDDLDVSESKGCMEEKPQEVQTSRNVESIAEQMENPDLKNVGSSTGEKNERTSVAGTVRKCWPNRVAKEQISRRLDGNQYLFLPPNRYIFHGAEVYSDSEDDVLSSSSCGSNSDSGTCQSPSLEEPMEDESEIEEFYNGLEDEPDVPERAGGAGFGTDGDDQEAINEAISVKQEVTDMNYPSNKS
- Measurement Description: SIRT1 fluorescent deacetylation assay (p53-382 acetylated peptide substrate)
- Type: biochemical
- Conditions Used: Table 9, resveratrol analogs; 100 μM, 25 μM NAD+, 25 μM p53-382 acetylated peptide
Metric Name: Ratio to Control Rate Mean ± SE
Please reply with the number alone, leaving off any unit.

Record request: Ratio to Control Rate Mean ± SE value, item Cc1ccc(/C=C/c2cc(O)cc(O)c2)cc1 [BML-228, 3,5-Dihydroxy-4′-methyl-trans-stilbene]
7.72

What measured Ratio to Control Rate Mean ± SE goes with Oc1cc(O)cc(/C=C/c2ccc(Cl)cc2)c1 [BML-217, 3,5-Dihydroxy-4′-chloro-trans-stilbene] ?
10.6

// returns reported Ratio to Control Rate Mean ± SE for input Oc1cc(O)cc(/C=C/c2ccccc2)c1 [Pinosylvin, 3,5-Dihydroxy-trans-stilbene]
9.95

Request the reported Ratio to Control Rate Mean ± SE associated with CCc1ccc(/C=C/c2cc(O)cc(O)c2)cc1 [BML-225, 3,5-Dihydroxy-4′-ethyl-trans-stilbene]
9.373

Recorded Ratio to Control Rate Mean ± SE of Oc1cc(O)cc(/C=C/c2ccc(F)cc2)c1 [BML-212, 3,5-Dihydroxy-4′-fluoro-trans-stilbene] , please.
8.20

----------
Field: Ratio to Control Rate Mean ± SE. Provide a value for each of the compounds that follow.
- Target System: recombinant human SIRT1 (Homo sapiens)
- Measurement Description: SIRT1 fluorescent deacetylation assay (p53-382 acetylated peptide substrate)
- Format: biochemical
- Conditions Used: Supplementary Table 1, stilbenes and chalcones; 100 μM, 25 μM NAD+, 25 μM p53-382 acetylated peptide
Hey, just send me the number, nothing else.

// returns reported Ratio to Control Rate Mean ± SE for input COc1ccc(/C=C/c2cc(O)cc(O[C@@H]3O[C@H](CO)[C@@H](O)[C@H](O)[C@H]3O)c2)cc1 [Deoxyrhapontin]
1.94

For the compound shown here, O=C(/C=C/c1ccccc1)c1ccccc1 [Chalcone] , give the reported Ratio to Control Rate Mean ± SE.
1.34

Given the compound O=C(/C=C/c1ccc(O)c(O)c1)c1c(O)cc(O)cc1O [3,4,2′,4′,6′-Pentahydroxychalcone] , what is its reported Ratio to Control Rate Mean ± SE?
2.80

Give the measured Ratio to Control Rate Mean ± SE of C(=C/c1ccccc1)/c1ccccc1 [cis-Stilbene] .
1.14

If you can, please state the reported Ratio to Control Rate Mean ± SE value of COc1ccc(/C=C/c2cc(O)cc(O[C@@H]3O[C@H](CO)[C@@H](O)[C@H](O)[C@H]3O)c2)cc1O [Rhapontin] .
1.40

Returns the measured Ratio to Control Rate Mean ± SE for the input compound. Input: O=C(/C=C/c1ccc(O)c(O)c1)c1ccc(O)cc1O [Butein, 3,4,2′,4′-Tetrahydroxychalcone]
8.53

Consider the compound C(=C\c1ccccc1)/c1ccccc1 [trans-Stilbene] and give its measured Ratio to Control Rate Mean ± SE.
1.48

Recorded Ratio to Control Rate Mean ± SE of Oc1cc(O)cc(/C=C/c2ccc(O)c(O)c2)c1 [Piceatannol, 3,5,3′,4′-Tetrahydroxy-trans-stilbene] , please.
7.90
